FYI, the data here is from PubChem BioAssay.

Entries and their measured viability follow.
# test.name: MRP1 drug-resistance reversers in H69AR cells – cell-based, doxorubicin co-treatment, pilot screen (AID 601)
# condition.summary: H69AR cells, CellTiter-Glo, 72 h; compound alone cytotoxicity; at 10 µM
Give your result in % as a bare value.

These recorded examples may help you get a feel for the data.
Cc1cc(=O)oc2cc(OCC#N)ccc12: 99.4
O=C(CC1Oc2ccc(Cl)cc2NC1=O)NC1CCCCCC1 (stereo unspecified): 88

"CC(C)c1ccc(-c2nc(N3CCCCC3)[nH]c(=O)c2C#N)cc1" yielded viability of 88.3

"Cc1cccc(NC(=O)c2ccccc2O)c1C" yielded viability of 93.3

"O=C(O)c1ccc2c(c1)C(=O)N(c1ccc(Cl)cn1)C2=O" yielded viability of 87.2

"O=C(Nc1ccc(N2CCCC2)cc1)c1ccc(Br)o1" yielded viability of 101

###

# test.name: S. cerevisiae growth inhibition in permissive medium (OD615), pilot counter-assay for S. cerevisiae lifespan shortening project, permissive growth control (AID 705)
# condition.summary: OD615, 24 h, at 10 µM, stronger effect = higher value
The source made the active and inactive calls.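 The calls were made as follows: active = growth inhibition above 25% in both replicates, a cutoff set 3 SD above the mean; inconclusive = above 25% in only one replicate; inactive = the rest.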
Entries and their measured growth inhibition follow.

These recorded examples may help you get a feel for the data.
O=P(O)(CCc1ccccn1)CN1CCOCC1: -17.5% (inactive)
COC(=O)c1nc2n(n1)C(c1ccc(OC)c(OC)c1)C(C(=O)OC1CCCCC1)=C(C)N2 (stereo not drawn): -0.32% (inactive)
COc1ccc(CNC(=O)CS(=O)Cc2nc(-c3ccc(C)cc3)oc2C)cc1 (stereo not drawn): -5.34% (inactive)
COc1ccc(NC(=O)CC2CCCCC2)cc1OC: -9.11% (inactive)
Cc1cc(C)n2nc(SCc3nc4ccccc4[nH]3)nc2n1: -5.58% (inactive)
CC(C)(C)NC(=O)CC(CC(=O)O)c1ccccc1 (stereo not drawn): -11.7% (inactive)
O=C(CSc1nnc(Cn2c(=O)sc3ccccc32)n1-c1ccccc1)Nc1nccs1: 11.2% (inactive)
Cc1ccc(-c2nc3cnccn3c2Nc2ccc3c(c2)OCO3)o1: -15.8% (inactive)

With those in mind, consider the next molecule.
"COc1ccc(NC(=O)CSc2nc3c(c(=O)n2-c2ccccc2OC)SCC3)cc1" yielded growth inhibition of 1.7% (inactive)

###

# target.system: Receptor tyrosine-protein kinase erbB-2 (Homo sapiens) (UniProt P04626)
# Sequence (P04626 whole entry, looked up): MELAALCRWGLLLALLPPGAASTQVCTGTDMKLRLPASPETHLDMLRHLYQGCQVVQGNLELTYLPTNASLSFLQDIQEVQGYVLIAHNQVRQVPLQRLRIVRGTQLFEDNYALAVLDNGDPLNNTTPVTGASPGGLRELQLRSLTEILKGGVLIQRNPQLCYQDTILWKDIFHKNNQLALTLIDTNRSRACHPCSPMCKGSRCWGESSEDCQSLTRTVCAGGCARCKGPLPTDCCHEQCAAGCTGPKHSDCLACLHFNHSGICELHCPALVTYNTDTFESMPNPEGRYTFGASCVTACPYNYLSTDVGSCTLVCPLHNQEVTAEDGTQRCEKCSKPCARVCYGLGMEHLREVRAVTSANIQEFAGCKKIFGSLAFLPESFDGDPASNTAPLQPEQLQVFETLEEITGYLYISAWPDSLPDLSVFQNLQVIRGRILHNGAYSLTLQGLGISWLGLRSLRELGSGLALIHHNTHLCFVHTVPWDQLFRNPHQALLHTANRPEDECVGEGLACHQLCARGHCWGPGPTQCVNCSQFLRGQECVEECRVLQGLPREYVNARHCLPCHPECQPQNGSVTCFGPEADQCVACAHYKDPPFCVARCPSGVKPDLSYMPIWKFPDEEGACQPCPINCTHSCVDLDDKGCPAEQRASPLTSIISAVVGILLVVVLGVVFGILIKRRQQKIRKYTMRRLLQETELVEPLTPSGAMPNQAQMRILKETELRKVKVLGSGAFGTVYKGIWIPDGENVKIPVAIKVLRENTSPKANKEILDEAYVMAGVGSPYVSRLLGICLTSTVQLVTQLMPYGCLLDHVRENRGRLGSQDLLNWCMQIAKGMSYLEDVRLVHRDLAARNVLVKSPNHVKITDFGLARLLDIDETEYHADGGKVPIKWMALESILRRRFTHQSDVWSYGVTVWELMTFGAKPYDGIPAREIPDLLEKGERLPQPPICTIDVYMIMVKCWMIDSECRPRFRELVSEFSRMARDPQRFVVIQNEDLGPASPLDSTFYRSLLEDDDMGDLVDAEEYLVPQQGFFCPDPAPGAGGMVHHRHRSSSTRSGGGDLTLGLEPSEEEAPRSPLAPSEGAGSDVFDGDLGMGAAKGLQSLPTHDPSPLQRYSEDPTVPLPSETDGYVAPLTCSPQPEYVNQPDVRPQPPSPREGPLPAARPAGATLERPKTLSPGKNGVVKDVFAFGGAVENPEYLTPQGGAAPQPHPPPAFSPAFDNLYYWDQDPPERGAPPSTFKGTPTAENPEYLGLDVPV
# test.name: Her2 expression decrease, cell viability multiplex – SKBR3 breast tumor cells, AlphaScreen, ATP viability, primary screen (AID 461);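 also: lower value means less Her2 protein in the cells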
# condition.summary: 18-24 h, at 10 µM, stronger effect = lower value
quantity.kind: Her2 level (%)
Give your result in % as a bare value.

O=C(c1ccc(CNc2c(N3CCCC3)c(=O)c2=O)cc1)N1CCc2ccccc2C1: 100

"CCOc1ccc(NC(=O)CSc2nnc(COc3c(C)cccc3C)o2)cc1" yielded Her2 level of 102

CC(=O)C1=C(C)Nc2ncnn2C1c1cccc(OCc2ccccc2)c1 (stereo not given) yielded Her2 level of 104

"CCOc1ccc2nc(N3CCC(C(=O)N4CCN(C5CCCCC5)CC4)CC3)sc2c1" yielded Her2 level of 83.5

Cc1nc2ccc(S(=O)(=O)NC(C(=O)N3CCCC3)C(C)C)cc2s1 (stereo not given) yielded Her2 level of 106

###

Entries and their measured viability follow.
# test.name: MRP1 drug-resistance reversers in H69AR cells – cell-based, doxorubicin co-treatment, pilot screen (AID 601)
# condition.summary: H69AR cells + 2 uM doxorubicin, CellTiter-Glo, 72 h; measured here: viability with 2 uM doxorubicin; at 10 µM; stronger effect = lower value
Give your result in % as a bare value.

CN(CC(=O)N1CCCCC1)S(=O)(=O)c1cccc2cccnc12: 95.8
CC(C)CCN(C)C1CCN(S(=O)(=O)c2ccc(F)cc2)CC1: 91.6
O=C(COc1ccc2ccccc2c1)N1CCCC1: 81.4
CCOc1ccc(N(CC(=O)NC2CCCCC2)S(=O)(=O)c2c(C)noc2C)cc1: 85.6
Cc1c(NC(=O)c2ccc(Br)o2)c(=O)n(-c2ccccc2)n1C: 86.1
COCCn1c(=O)[nH]c2cc(C(=O)N3CCN(c4ccccc4OC)CC3)ccc2c1=O: 91.4
COc1ccc(NC(=O)CSc2nnc(Cc3cccn3C)n2-c2ccc(F)cc2)cc1: 110
Cc1cccc(-n2ncc3c(NCCCn4ccnc4)ncnc32)c1: 84.9

"CCOC(=O)N1CCC(c2cc(=O)n3[nH]c(C)c(-c4ccc(F)cc4)c3n2)CC1" yielded viability of 65.5

CC(=O)C1=C(C)Nc2ncnn2C1c1cccc(OCc2ccccc2)c1 (stereo not given) yielded viability of 94.2

Cc1ccc(C(c2sc3ncnn3c2O)N2CC(C)CC(C)C2)cc1 (stereo not given) yielded viability of 84.3

"Cc1occc1C(=O)N1CCN(Cc2ccccc2)CC1" yielded viability of 86

Nc1nc2n(n1)C(c1cccc(Br)c1)CC(c1ccc(F)cc1)N2 (stereo not given) yielded viability of 117

"COc1ccc(N2CCN(Cc3nc4c(c(=O)n(C)c(=O)n4C)n3Cc3ccccc3C)CC2)cc1" yielded viability of 54.9

"Cc1cccc(NC(=O)CS(=O)(=O)c2cn(C)c3ccccc23)c1" yielded viability of 92

CCSc1nc2c(c(=O)[nH]1)C(c1cccnc1)C(C(=O)OC(C)C)=C(C)N2 (stereo not given) yielded viability of 81.8

"c1ccc(-c2cn3cccnc3n2)cc1" yielded viability of 90.4

O=C(CN1CCN(Cc2ccccc2)CC1)NCC1COc2ccccc2O1 (stereo not given) yielded viability of 86.6

CC1CCCCN1CCNC(=O)c1ccc2c(=O)n(CCc3ccccc3)c(=O)[nH]c2c1 (stereo not given) yielded viability of 80.8

"O=C(CSc1nnc(Cn2c(=O)sc3ccccc32)n1-c1ccccc1)Nc1nccs1" yielded viability of 84

Cc1c(C(=O)OC2CCC(C)CC2)[nH]c2c1C(=O)CCC2 (stereo not given) yielded viability of 91.2

"COC(=O)c1sc(NC(=O)COc2ccccc2OC)nc1C" yielded viability of 83.5

COC1CCCCC1Nc1cccc(SC)c1 (stereo not given) yielded viability of 77.7

"COc1ccc(-c2cnc(SCC(=O)Nc3ccc4c(c3)OCO4)n2Cc2ccco2)cc1" yielded viability of 93.1

"COC(=O)c1ccc(NC(=O)CN2CCCC2)cc1" yielded viability of 99.2

O=C(NCCN1C(=O)C2C3C=CC(C3)C2C1=O)N1CCCCC1 (stereo not given) yielded viability of 96.5

CN1CCN(CC(=O)N2c3ccccc3C(C)(c3ccccc3)CC2(C)C)CC1 (stereo not given) yielded viability of 97.1

COc1ccc(OC)c(C2CC(=O)NC(SC)=C2C#N)c1 (stereo not given) yielded viability of 82.8

###

# test.name: S. cerevisiae growth inhibition in restrictive medium, OD615, pilot screen, restrictive growth control, yeast lifespan reduction project (AID 706);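 also: modified DeaD lifespan yeast strain shifted to restrictive glucose medium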
# condition.summary: OD615, 48 h, at 10 µM, stronger effect = higher value
Entries and their measured growth inhibition follow.
Give your result in % as a bare value.

"COC(=O)c1ccc(COc2ccc3c(C)c(C)c(=O)oc3c2)o1" yielded growth inhibition of -4.88

CC12CN3CCN(CC(C3)C1(O)CN1CCCCC1)C2 (stereo unspecified) yielded growth inhibition of -6.28

CCOC(=O)N1CCN(C(=O)C2CCCN(Cc3nc(-c4ccc(Cl)cc4)oc3C)C2)CC1 (stereo unspecified) yielded growth inhibition of -13.2

CCOC(=O)CSC(CC)C(=O)Nc1nnc(CC)s1 (stereo unspecified) yielded growth inhibition of -6

"C/C=C/CSc1nc2c(c(=O)[nH]c(=O)n2C)n1Cc1ccc(C)cc1" yielded growth inhibition of 1.29

"Cc1ccc(-n2c3c(cc(C(=O)O)c2=O)C(=O)CC(C)(C)C3)cc1" yielded growth inhibition of -5.83

"Cc1c(-n2c(CN3C(=O)c4ccccc4C3=O)nc3ccccc3c2=O)c(=O)n(-c2ccccc2)n1C" yielded growth inhibition of 2.67

"COc1cc(C(=O)NCCc2ccc3c(c2)OCCO3)ccc1OCC(=O)N1CCOCC1" yielded growth inhibition of -16

COc1ccccc1C(=O)NC(CCSC)C(=O)NCC(c1ccco1)N(C)C (stereo unspecified) yielded growth inhibition of -0.55

"Cc1ccc(C)n1-c1ccc(N2CCOCC2)cc1" yielded growth inhibition of -9.78

O=C(Nc1nc2c(s1)CCCC2)C1COc2ccccc2O1 (stereo unspecified) yielded growth inhibition of -7.76

###

# target.system: Receptor tyrosine-protein kinase erbB-2 (Homo sapiens)
# test.name: Her2 expression decrease, cell viability multiplex – SKBR3 breast tumor cells, AlphaScreen, ATP viability, primary screen (AID 461);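 also: lower value means less Her2 protein in the cells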
# condition.summary: 18-24 h, at 10 µM, stronger effect = lower value
Entries and their measured Her2 level follow.
Give your result in % as a bare value.

These recorded examples may help you get a feel for the data.
CC(Oc1ccc2oc(-c3ccccc3)c(C(=O)O)c2c1)C(=O)O (stereo unspecified): 77.5
COC(=O)c1ccsc1NC(=O)CN1C(=O)CCC1=O: 121
O=C(Nc1ccc(Cl)cn1)c1cccnc1: 112
COc1ccc(S(=O)(=O)Cc2ccc(C(=O)NCCc3ccc(S(N)(=O)=O)cc3)o2)cc1: 114
Brc1ccccc1-c1nc(-c2ccccc2)no1: 84.5

With those in mind, consider the next compound.
"CCN1CCN(c2nc3c(c(=O)[nH]c(=O)n3C)n2CCSc2nc3ccccc3s2)CC1" yielded Her2 level of 95
